Target: TNF-alpha (UniProt P01375 77-233)
Sequence (P01375 77-233): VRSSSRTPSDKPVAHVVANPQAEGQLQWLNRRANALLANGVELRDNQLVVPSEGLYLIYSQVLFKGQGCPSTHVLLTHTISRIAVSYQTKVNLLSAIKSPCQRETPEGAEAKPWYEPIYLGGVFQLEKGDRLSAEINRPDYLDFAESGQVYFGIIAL
Experiment: graphene FET
Endpoint: pKd
The meaning of pKd here: minus log10 of the concentration in molar units.

Lookup: Using known records, supply pKd for TGGTGGATGGCGCAGTCGGCGACAA (ssDNA, 5'-NH2 (coupled to PASE on graphene)) [VR11]
Found: 7.81
